- SYSTEM_TESTED: 14-3-3ζ:BAD-112-136F interactions (Homo sapiens, UniProt P63104)
- Construct: expressed in transfected cells; host or cells: NIH-3T3 fibroblasts, bi-directional pBI-CMV1 plasmid
- ASSAY_REMARKS: BRET sensor screen for disruption of 14-3-3ζ-Rluc8:BAD-112-136F-mCitrine in living NIH-3T3 cells
- Type: cell-based, murine
- EXPERIMENTAL_CONTEXT: NIH3T3, 3 h, NIH-3T3 expressing BRET sensor; 20 µM, 3 h; read-out: BRET reduction on NIH-3T3
Class Fulfilled: inhibition at 20 µM at least 30%. Class Not fulfilled: inhibition at 20 µM below 30%.

Recorded results for 2 molecules are shown here.
Ask | Does inhibition at 20 µM meet or surpass 30% for CCCCCCCCCCCC1=C(O)C(=O)C=C(O)C1=O ?
Reply | Fulfilled

Ask | Quick check, inhibition at 20 µM >= 30%? C=CC[C@@H]1/C=C(\C)C[C@H](C)C[C@H](OC)[C@H]2O[C@@](O)(C(=O)C(=O)N3CCCC[C@H]3C(=O)O[C@H](/C(C)=C/[C@@H]3CC[C@@H](O)[C@H](OC)C3)[C@H](C)[C@@H](O)CC1=O)[C@H](C)C[C@@H]2OC
Reply | Not fulfilled

***
Ask | Is inhibition at 20 µM at least 30%? Consider C=C1/C(=C\C=C2/CCC[C@]3(C)[C@@H]([C@H](C)/C=C/[C@@H](O)C4CC4)CC[C@@H]23)C[C@@H](O)C[C@@H]1O
Reply | Fulfilled

Ask | Determine whether measured inhibition at 20 µM meets or exceeds 30% for c1ccc(-c2ccc(C(c3ccccc3)n3ccnc3)cc2)cc1 (stereo not drawn)
Reply | Fulfilled

Ask | Dear colleague, could you confirm whether Clc1ccc(C(Cn2ccnc2)OCc2ccc(Sc3ccccc3)cc2)c(Cl)c1 (stereo not drawn) [Fenticonazole Nitrate] has inhibition at 20 µM at or above 30%?
Reply | Fulfilled

Ask | Hello, I need to know if COc1cc2c(Oc3ccc4[nH]c(C)cc4c3F)ncnc2cc1OCCCN1CCCC1 has measured inhibition at 20 µM not below 30%. Thanks!
Reply | Fulfilled

---

So I've got a bunch of molecules here, and I need their cytotoxicity at 20 µM values.
- Tested on: HT-29 cells
- ASSAY_REMARKS: Hoechst/propidium iodide cell death assay in HT-29
- Type: cell-based, human
- EXPERIMENTAL_CONTEXT: Homo sapiens, HT-29, 48 h, read-out: Percentage of cell death % 48h, HT-29
One number for each entry, in %.

Sample answers from the record:
Ask | Read the entry Cc1ccc(C(=O)Nc2ccc(CN3CCN(C)CC3)c(C(F)(F)F)c2)cc1C#Cc1cnc2cccnn12 and write its reported cytotoxicity at 20 µM.
Reply | 83.2

Ask | State, in one line, measured cytotoxicity at 20 µM of CC(C)(C)CC(C)(C)c1ccc(OCCOCC[N+](C)(C)Cc2ccccc2)cc1 [Benzethonium Chloride]
Reply | 90.4

Ask | Please list cytotoxicity at 20 µM recorded for the molecule Oc1cc(Cl)ccc1Oc1ccc(Cl)cc1Cl
Reply | 21.6

Field: cytotoxicity at 20 µM. Fill in for each record below.
1. CCCCCCCCCCCCCCCC[N+](C)(C)C [Cetrimonium Bromide (CTAB), Cetrimonium Bromide]
2. C=CCc1ccc(O)c(-c2cc(CC=C)ccc2O)c1

Reply |
55.4
20.3

---

- SYSTEM_TESTED: His-14-3-3ζ (Homo sapiens, UniProt P63104)
- Construct: made in house; host or cells: Escherichia coli BL21 LOBSTR-RIL
- Sequence (P63104 whole entry): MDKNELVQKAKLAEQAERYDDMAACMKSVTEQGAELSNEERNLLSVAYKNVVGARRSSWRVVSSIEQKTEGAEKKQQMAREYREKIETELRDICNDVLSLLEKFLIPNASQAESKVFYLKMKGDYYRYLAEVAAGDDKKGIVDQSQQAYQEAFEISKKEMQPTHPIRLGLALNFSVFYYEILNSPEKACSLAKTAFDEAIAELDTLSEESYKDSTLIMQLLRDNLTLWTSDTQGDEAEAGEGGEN
- ASSAY_REMARKS: Surface plasmon resonance (SPR) on immobilized His-14-3-3ζ
- Assay type: binding
- EXPERIMENTAL_CONTEXT: pH 7.8; SPR association rate, value repeated per curve; read-out: ka
Give kon for every item shown.
One number for each entry, in M⁻¹ s⁻¹.

Use the examples below as a reference point.
Ask | Consider the compound OC1(c2ccc(Cl)c(C(F)(F)F)c2)CCN(CCCC(c2ccc(F)cc2)c2ccc(F)cc2)CC1 [Penfluridol] tested on His-14-3-3ζ (Homo sapiens, UniProt P63104); state its kon.
Reply | 7240

Ask | Quote His-14-3-3ζ (Homo sapiens, UniProt P63104) kon for entry O=C(NC1CCN(CCCCC2(C(=O)NCC(F)(F)F)c3ccccc3-c3ccccc32)CC1)c1ccccc1-c1ccc(C(F)(F)F)cc1 [Lomitapide] .
Reply | 12700

Ask | Look up and report measured kon (His-14-3-3ζ (Homo sapiens, UniProt P63104)) for the following compound: CC(C)(C)c1ccc(C(O)CCCN2CCC(C(O)(c3ccccc3)c3ccccc3)CC2)cc1 (stereo not shown) [Terfenadine]
Reply | 6260

--- query ---
Ask | Quote His-14-3-3ζ (Homo sapiens, UniProt P63104) kon for entry CCCCCCCCc1ccc(CCC(N)(CO)CO)cc1 [Fingolimod (FTY720), Fingolimod] .
Reply | 807

---

- Test system: HT-29 cells
- ASSAY_REMARKS: Hoechst/propidium iodide cell death assay in HT-29
- Type: cell-based, human
- EXPERIMENTAL_CONTEXT: Homo sapiens, HT-29, 48 h, HT-29; 48h; 20 μM; read-out: Percentage of cell death % 48h, HT-29
PROPERTY_NAME: cytotoxicity at 20 µM (%)
Answers are plain numbers, in %.

Ask | State, in one line, measured cytotoxicity at 20 µM of Clc1ccc(C(c2ccccc2Cl)C(Cl)Cl)cc1 (stereo not drawn)
Reply | 1.62

Ask | Identify measured cytotoxicity at 20 µM associated with CC[C@H]1[C@@H](O)[C@@H]2[C@H](CC[C@]3(C)[C@@H]([C@H](C)CCC(=O)O)CC[C@@H]23)[C@@]2(C)CC[C@@H](O)C[C@@H]12
Reply | 1.41

Let us examine a further case.
Ask | Provide only the value of recorded cytotoxicity at 20 µM for CC1=C(C(=O)OC(C)C)C(c2cccc([N+](=O)[O-])c2)C(C(=O)OC2CN(C(c3ccccc3)c3ccccc3)C2)=C(N)N1 (stereo not drawn)
Reply | 91.6

---

- SYSTEM_TESTED: 14-3-3ζ:BAD-112-136F interactions (Homo sapiens)
- Construct: expressed in transfected cells; host or cells: NIH-3T3 fibroblasts, bi-directional pBI-CMV1 plasmid
- ASSAY_REMARKS: BRET sensor screen for disruption of 14-3-3ζ-Rluc8:BAD-112-136F-mCitrine in living NIH-3T3 cells
- Type: cell-based, murine
- EXPERIMENTAL_CONTEXT: NIH3T3, 3 h, read-out: BRET reduction on NIH-3T3
Numbered stars: 1 amine (or outer) side, 2 acyl side, 3 side chain; on linkers, the order of the positions; unused ones are H or OH. Bridge positions count the residues as written; N and C are the ends. Square brackets hold non-standard residues; d marks the D form. Peptide text beside a SMILES is read from it. * marks the point of attachment. pTerphenylCO(4''-OnC5H11) = CCCCCOc1ccc(-c2ccc(-c3ccc(C(=O)*)cc3)cc2)cc1; Orn(4R-OH,5R-OH) = O=C([C@H](C[C@@H](O)[C@@H](O)N[*:3])N[*:1])[*:2]; hTyr(3S-OH,4S-OH) = N[C@H](C(=O)O)[C@H](O)[C@@H](O)c1ccc(O)cc1; Pro(3S-OH,4S-Me) = C[C@H]1CN[C@H](C(=O)O)[C@H]1O; Hyp = O=C(O)[C@@H]1C[C@@H](O)CN1
PROPERTY_NAME: inhibition at 20 µM (%)
Answers are plain numbers, in %.

Ask | Tell us which inhibition at 20 µM value is on record for Oc1cc(Cl)ccc1Oc1ccc(Cl)cc1Cl [Triclosan]
Reply | 35.6

Ask | Return inhibition at 20 µM (reported value) for this compound: C=CCc1ccc(O)c(-c2cc(CC=C)ccc2O)c1 [Magnolol]
Reply | 33.2

Ask | Output inhibition at 20 µM of COc1cc(C)c(/C=C/C(C)=C/C=C/C(C)=C/C(=O)O)c(C)c1C [Acitretin]
Reply | 31.9

Ask | // fetch inhibition at 20 µM given entry O=c1[nH]c2ccccc2n1C1CCN(CCCC(c2ccc(F)cc2)c2ccc(F)cc2)CC1 [Pimozide]
Reply | 38.4

Ask | State its inhibition at 20 µM for this compound: C[C@H]1O[C@@H](O[C@H]2CC[C@@]3(C)[C@@H](CC[C@]4(C)[C@@H]3C=C[C@]35OC[C@@]6(CCC(C)(C)C[C@H]63)[C@@H](O)C[C@]54C)[C@]2(C)CO)[C@H](O)[C@@H](O[C@@H]2O[C@H](CO)[C@@H](O)[C@H](O)[C@H]2O)[C@H]1O [Saikosaponin A]
Reply | 53.8

Ask | Read off the recorded inhibition at 20 µM for Cc1ccc(C(=O)Nc2ccc(CN3CCN(C)CC3)c(C(F)(F)F)c2)cc1C#Cc1cnc2cccnn12 [Ponatinib (AP24534), Ponatinib]
Reply | 44.7

Kindly give each listed record's inhibition at 20 µM.
1. CCCCCCCCCCCCCCCC[N+](C)(C)C [Cetrimonium Bromide (CTAB), Cetrimonium Bromide]
2. CCCCCOc1ccc(-c2ccc(-c3ccc(C(=O)N[C@H]4C[C@@H](O)[C@@H](O)NC(=O)[C@@H]5[C@@H](O)[C@@H](C)CN5C(=O)[C@H]([C@@H](C)O)NC(=O)[C@H]([C@H](O)[C@@H](O)c5ccc(O)cc5)NC(=O)[C@@H]5C[C@@H](O)CN5C(=O)[C@H]([C@@H](C)O)NC4=O)cc3)cc2)cc1 [Anidulafungin] ({pTerphenylCO(4''-OnC5H11)}-[Orn(4R-OH,5R-OH)]T[Hyp][hTyr(3S-OH,4S-OH)]T[Pro(3S-OH,4S-Me)]; lactam 1-C)

Reply |
35.4
27
